Experimental system: human 11betaHSD1 (Homo sapiens, UniProt P28845)
Construct: stably transfected with full-length human 11betaHSD1 cDNA; expressed in transfected cells; host or cells: HEK-293
Sequence (P28845 whole entry): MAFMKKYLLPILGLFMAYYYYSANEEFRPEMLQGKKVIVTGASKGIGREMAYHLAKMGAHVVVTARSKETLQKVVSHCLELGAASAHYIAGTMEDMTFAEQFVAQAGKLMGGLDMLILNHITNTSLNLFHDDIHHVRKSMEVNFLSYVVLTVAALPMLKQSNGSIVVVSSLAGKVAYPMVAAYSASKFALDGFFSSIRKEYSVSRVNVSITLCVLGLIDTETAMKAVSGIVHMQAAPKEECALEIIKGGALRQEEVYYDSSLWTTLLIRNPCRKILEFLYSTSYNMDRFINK
Procedure details: Human Hek Assay: cortisone to cortisol conversion in HEK-293 cells stably transfected with human 11betaHSD1, cortisol by ELISA
Format: cell-based
Condition: HEK-293 cells transfected with human 11betaHSD1; 100 nM cortisone, 1 hour; read-out: humHEK (IC50)
pIC50: −log10 of the molar value.
pIC50 by entry:
Result type: pIC50

* Cn1ncc(C(=O)NC2C3CC4CC2CC(NS(C)(=O)=O)(C4)C3)c1-n1cccn1 (stereo not shown) | 7.11
* COCCN(C)c1c(C(=O)NC2C3CC4CC(C3)CC2C4)cnn1C (stereo not shown) | 7.58
* CC(C)(C)n1ncc(C(=O)N[C@H]2C3CC4CC2C[C@](O)(C4)C3)c1C(F)(F)F | 6.22
* CC(C)(C)n1ncc(C(=O)N[C@H]2C3CC4CC2C[C@](O)(C4)C3)c1-n1cccn1 | 7.70
* Cn1ncc(C(=O)N[C@H]2C3CC4CC2C[C@](O)(C4)C3)c1-n1cccc1 | 7.65
* CC(C)(C)n1ncc(C(=O)NC2C3CC4CC(C3)CC2C4)c1-n1cccn1 (stereo not shown) | 8.17
* CC(C)(C)n1ncc(C(=O)N[C@H]2C3CC4CC2C[C@](O)(C4)C3)c1Cl | 7.72
* Cn1ncc(C(=O)NC2C3CC4CC(C3)CC2C4)c1Cl (stereo not shown) | 6.72
* CC(=O)NC12CC3CC(C1)C(NC(=O)c1cnn(C(C)(C)C)c1Cl)C(C3)C2 (stereo not shown) | 7.18
* CC(C)(C)n1ncc(C(=O)N[C@H]2C3CC4CC2C[C@@](O)(C4)C3)c1C(F)(F)F | 7.69
* Cn1ncc(C(=O)NC2C3CC4CC(C3)CC2C4)c1N1CCOCC1 (stereo not shown) | 7.78
* O=C(NC1C2CC3CC(C2)CC1C3)c1cnn(C2CC2)c1C(F)(F)F (stereo not shown) | 7.65
* CC(=O)NC12CC3CC(C1)C(NC(=O)c1cnn(C(C)(C)C)c1-n1cccn1)C(C3)C2 (stereo not shown) | 7.62
* CN1CCN(c2c(C(=O)NC3C4CC5CC(C4)CC3C5)cnn2C)CC1 (stereo not shown) | 7.63
* CC(C)(C)n1ncc(C(=O)NC2C3CC4CC(C3)CC2C4)c1C(F)(F)F (stereo not shown) | 8.01
* Cn1ncc(C(=O)N[C@H]2C3CC4CC2C[C@](O)(C4)C3)c1-n1cccn1 | 7.41
* CC(=O)NC12CC3CC(C1)C(NC(=O)c1cnn(C(C)(C)C)c1C(F)(F)F)C(C3)C2 (stereo not shown) | 7.74
* Cn1ncc(C(=O)NC2C3CC4CC2CC(O)(C4)C3)c1-n1cccc1 (stereo not shown) | 7.40
* COCCNc1c(C(=O)NC2C3CC4CC(C3)CC2C4)cnn1C (stereo not shown) | 7.15

FYI, the data here is from patent US7728029B2.
